Assay: LNP average particle size and polydispersity by dynamic light scattering
Assay type: physicochemical
Conditions: LNP with the compound as amine lipid; Expt. 8; composition ratio (mol %) 50/9/38/3 for Cmpnd 49, 50/10/38.5/1.5 for the others
Measurement Kind: PDI

Compound	PDI
CCCCC/C=C\C/C=C\CCCCCCCC(=O)OCC(COC(=O)CCCCCCC/C=C\C/C=C\CCCCC)OC(=O)CCC(CCCCCCCCCC)OC(=O)NCC1CCCN1C (stereo not shown)	0.056

A: CCCCC/C=C\C/C=C\CCCCCCCC(=O)OCC(COC(=O)CCCCCCC/C=C\C/C=C\CCCCC)OC(=O)CCC(CCCCCC)OC(=O)NCC1CCCN1C (stereo not shown)
B: CCCCC/C=C\C/C=C\CCCCCCCC(=O)OCC(COC(=O)CCCCCCC/C=C\C/C=C\CCCCC)OC(=O)CCC(CCCCCCCCCCCC)OC(=O)NCC1CCCN1C (stereo not shown)
C: CCCCC/C=C\C/C=C\CCCCCCCC(=O)OCC(COC(=O)CCCCCCC/C=C\C/C=C\CCCCC)OC(=O)CCC(CCCCC)OC(=O)NCC1CCCN1C (stereo not shown)
Sort low-to-high on PDI, please. Please express your ranking as an ordered list of the labels.
C, A, B

###

Assay: LNP average particle size and polydispersity by dynamic light scattering
Format: physicochemical
Details: LNP with the compound as amine lipid; Expt. 5; composition ratio (mol %) 50/10/38.5/1.5
Measurement Kind: PDI

P: CCCCC/C=C\C/C=C\CCCCCCCC(=O)OCC(COC(=O)CCCCCCC/C=C\C/C=C\CCCCC)OC(=O)CCC(CCCCCC)OC(=O)NC1CN(C)C1 (stereo not drawn) [Compound 84]
Q: CCCCC/C=C\C/C=C\CCCCCCCC(=O)OCC(COC(=O)CCCCCCC/C=C\C/C=C\CCCCC)OC(=O)CCC(CCCCCC)OC(=O)NCCN1CCC1 (stereo not drawn) [Compound 77]
Which of these two has the smaller recorded PDI: P or Q ? Return value: the label identifying the chosen record.
P
(P: 0.03, Q: 0.08)

P: CCCCC/C=C\C/C=C\CCCCCCCC(=O)OCC(COC(=O)CCCCCCC/C=C\C/C=C\CCCCC)OC(=O)CCC(CCCCCC)OC(=O)NC(C)(C)CN1CCCC1 (stereo not drawn) [Compound 79]
Q: CCCCC/C=C\C/C=C\CCCCCCCC(=O)OCC(COC(=O)CCCCCCC/C=C\C/C=C\CCCCC)OC(=O)CCC(CCCCCC)OC(=O)NCCN1CCCC1 (racemic) [Compound 50]
R: CCCCC/C=C\C/C=C\CCCCCCCC(=O)OCC(COC(=O)CCCCCCC/C=C\C/C=C\CCCCC)OC(=O)CCC(CCCCCC)OC(=O)NCCN1CCCCC1 (stereo not drawn) [Compound 78]
S: CCCCC/C=C\C/C=C\CCCCCCCC(=O)OCC(COC(=O)CCC(OCCCCCCCC)OCCCCCCCC)COC(=O)OCCCN(CC)CC (stereo not drawn) [Compound 49, reference compound]
Task for the reader: rank each entry by its PDI, from the minimum upward. In your reply, arrange the labels in the requested order.
S, Q, P, R

###

Experiment: LNP average particle size and polydispersity by dynamic light scattering
Type: physicochemical
Conditions: LNP with the compound as amine lipid; Expt. 10; composition ratio (mol %) 50/9/38/3 for Cmpnd 49, 50/10/38.5/1.5 for the others
Measurement Kind: Num Ave Size (nm)

Compound	Num Ave Size (nm)
CCCCC/C=C\C/C=C\CCCCCCCC(=O)OCC(COC(=O)CCCCCCC/C=C\C/C=C\CCCCC)OC(=O)CCC(CCCCCCCC)OC(=O)OCCCCN(CC)CC (stereo not shown) [Compound 95]	88
CCCCC/C=C\C/C=C\CCCCCCCC(=O)OCC(COC(=O)CCCCCCC/C=C\C/C=C\CCCCC)OC(=O)CCC(CCCCCCCC)OC(=O)NCCN(C)CC (stereo not shown) [Compound 34]	77
CCCCC/C=C\C/C=C\CCCCCCCC(=O)OCC(COC(=O)CCCCCCC/C=C\C/C=C\CCCCC)OC(=O)CCC(CCCCCCCC)OC(=O)NCCN1CCCC1 (stereo not shown) [Compound 51]	82
CCCCC/C=C\C/C=C\CCCCCCCC(=O)OCC(COC(=O)CCCCCCC/C=C\C/C=C\CCCCC)OC(=O)CCC(CCCCCCCC)OC(=O)NCCN(C)C (stereo not shown) [Compound 91]	82

Where do the numbers come from? From patent US12077483B2.
